system.tested: human cytochrome P450 (CYP) 2C19 (Homo sapiens)
Construct: made in house; host or cells: yeast (microsomal fraction)
Sequence (P33261 whole entry): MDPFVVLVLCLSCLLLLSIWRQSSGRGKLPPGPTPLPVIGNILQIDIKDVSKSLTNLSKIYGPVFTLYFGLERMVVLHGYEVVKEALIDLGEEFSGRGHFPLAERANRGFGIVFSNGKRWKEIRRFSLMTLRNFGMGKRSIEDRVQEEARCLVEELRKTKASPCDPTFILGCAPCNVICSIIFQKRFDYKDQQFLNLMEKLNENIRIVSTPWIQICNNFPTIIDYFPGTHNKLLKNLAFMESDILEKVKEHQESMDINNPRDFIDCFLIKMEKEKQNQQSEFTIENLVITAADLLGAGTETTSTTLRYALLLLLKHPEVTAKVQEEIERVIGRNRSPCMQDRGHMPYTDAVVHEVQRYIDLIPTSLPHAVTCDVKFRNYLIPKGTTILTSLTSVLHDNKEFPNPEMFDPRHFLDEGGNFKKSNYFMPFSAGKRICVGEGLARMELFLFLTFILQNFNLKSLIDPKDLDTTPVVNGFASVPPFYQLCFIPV
experiment.notes: Cytochrome P450 Inhibition Assay, CYP 2C19
Assay type: in vitro ADME
test.settings: expected IC50 range of known inhibitor (positive control); read-out: IC50 range (μM), CYP 2C19

>  <compound>
COc1ccc2[nH]c([S+]([O-])Cc3ncc(C)c(OC)c3C)nc2c1 (stereo not shown) [Omeprazole, reference compound]

>  <IC50>
1.5 to 4.6 µM

$$$$

###

experiment.notes: Clearance (pharmacokinetics) in dogs
Format: in vivo
test.settings: dog, whole blood; female dogs, dose 0.927 mg/kg (2 umol/kg)
compounds and their reported clearance
readout.kind: clearance

>  <compound>
COc1cc(CCc2cc(NC(=O)c3ccc(N4CCN(C)[C@@H](C)C4)cc3)[nH]n2)cc(OC)c1 [Example 1a]

>  <measured.result>
36.2 mL/min/kg

$$$$
>  <compound>
COc1cc(CCc2cc(NC(=O)c3ccc(N4CCN(C)[C@H](C)C4)cc3)[nH]n2)cc(OC)c1 [Example 1b]

>  <measured.result>
11.5 mL/min/kg

$$$$
